# tested-system: RORγ ligand binding domain (LBD) (Homo sapiens)
# Construct: made in house; host or cells: E. coli BL-21 (BL3), vector pDEST15
# experiment-description: TR-FRET Activity Assay (ligand sensing, RORγ-LBD / coactivator peptide interaction, LANCE)
# Type: biochemical
# recorded-conditions: first value of the cell FRET/FF/REN; TR-FRET activity assay; read-out: pIC50 (FRET) (converted)
readout-kind: IC50
Provide a numeric answer, followed by its unit.

Below, each entry is followed by its recorded IC50 result.
input: Query (molecule): Cc1c(C(=O)NC2CCOCC2)cc(-c2cc(Cl)cc(C3(C)CC3)c2)n1CC1CCCCC1 [17/296] ; field requested: IC50
output: 0.251 µM

input: Subsequent entry: Cc1c(C(=O)N[C@H]2C[C@H](C(=O)O)C2)cc(-c2cc(C(C)(C)C)cc(C3(C)CC3)c2)n1CC1CCCCC1 [17/326]
output: 1 µM

New cases:
input: Can you look up the measured IC50 of Cc1c(C(=O)N[C@@H]2CCCOC2)cc(-c2ccc(S(=O)(=O)NC(C)(C)C)c(C(F)(F)F)c2)n1CC1CCCCC1 [17/138] for me?
output: 0.2 µM

input: What do you get for Cc1c(C(=O)NC2CCOCC2)cc(-c2ccc(S(=O)(=O)NC(C)(C)C)cc2)n1CC1CCCCC1 [17/237] ?
output: 1.26 µM

* * *

# tested-system: RORγ (UniProt P51449)
# Sequence (P51449 1-518): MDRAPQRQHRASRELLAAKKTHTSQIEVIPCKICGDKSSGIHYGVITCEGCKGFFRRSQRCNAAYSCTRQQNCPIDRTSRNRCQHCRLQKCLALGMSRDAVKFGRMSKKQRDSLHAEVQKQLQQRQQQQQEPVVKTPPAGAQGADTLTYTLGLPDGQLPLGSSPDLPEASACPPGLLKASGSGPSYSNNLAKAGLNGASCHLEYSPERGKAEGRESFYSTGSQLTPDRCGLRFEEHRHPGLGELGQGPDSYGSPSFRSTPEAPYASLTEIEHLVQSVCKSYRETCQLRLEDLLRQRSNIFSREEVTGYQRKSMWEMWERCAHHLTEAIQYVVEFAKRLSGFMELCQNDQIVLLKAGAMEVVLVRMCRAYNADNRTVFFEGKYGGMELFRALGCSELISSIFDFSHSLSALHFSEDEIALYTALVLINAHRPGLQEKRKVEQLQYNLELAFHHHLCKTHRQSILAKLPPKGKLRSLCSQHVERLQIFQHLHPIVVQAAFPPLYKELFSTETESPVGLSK
# experiment-description: RORγ Gal4 Reporter Gene Assay in 293T cells (firefly and renilla luciferase)
# Assay type: cell-based, human
# recorded-conditions: third value of the cell; Gal4 reporter gene assay in 293T cells, renilla normalised luciferase
Threshold rule: pIC50 (REN) greater than or equal to 7 is 1; below that, 0.

input: hey, is pIC50 (REN) for this one >= 7? Cc1c(C(=O)NCC(C)(C)NC(=O)CCC(=O)O)cc(-c2cc(C(C)(C)C)c3c(c2)C2(CCO3)CC2)n1CC1CCCCC1 [17/29]
output: 0

input: What about this molecule? Cc1c(C(=O)NC2CCOCC2)cc(-c2ccc(S(=O)(=O)NC(C)(C)C)c(C(F)(F)F)c2)n1CC1(O)CCCCC1 [17/255]
output: 0

Attention now shifts to the item below.
input: Check this molecule for pIC50 (REN) at or above 7: Cc1c(C(=O)NCCC(C)(C)C(=O)O)cc(-c2ccc(-c3ccnn3C(C)C)c(C(C)(C)C)c2)n1CC1CCCCC1 [26/6]
output: 1

* * *

# tested-system: RORγ (UniProt P51449)
# experiment-description: RORγ Gal4 Reporter Gene Assay in 293T cells (firefly and renilla luciferase)
# Type: cell-based, human
// pIC50 (REN) lookup, one value per entry

Please review the following examples before continuing.
input: Which pIC50 (REN) is listed for Cc1c(C(=O)NC2COC2)cc(-c2cc(OCC(C)C)nc(C(C)(C)C)c2)n1CC1CCCCC1 [1/121] ?
output: 6.9/7.0/7.2

input: Param item: Cc1c(C(=O)NC2COC2)cc(-c2cc(C(=O)N(C)C(C)(C)C)cc(C(F)(F)F)c2)n1CC1CCCCC1 [15/1]
output: 5.7/6.6/6.7

input: Entry to check: Cc1c(C(=O)NCC(C)(C)O)cc(-c2cc(C(C)(C)O)cc(C3(C)CC3)c2)n1CC1CCCCC1 [17/313]
output: 6.0/6.8/6.8

input: Also check Cc1c(C(=O)NC2CCOCC2)cc(-c2ccc(S(=O)(=O)NC(C)(C)C)c(C(F)(F)F)c2)n1CC1CCC(F)CC1 (centres unmarked) [17/257]
output: 6.3/7.4/7.6

input: Moving on to Cc1c(C(=O)NCCCCN2CCOCC2)cc(-c2cc(C(C)(C)C)cc(C(C)(C)C)c2)n1CC1CCCCC1 [1/74]
output: 5.3/<4.7/<4.7

***
input: // lookup pIC50 (REN) for Cc1c(C(=O)NCCC(C)(C)C(N)=O)cc(-c2cc(C(C)(C)C)cc(C3(C)CC3)c2)n1CC1CCCCC1 [17/74]
output: 6.3/7.3/7.2

input: And Cc1c(C(=O)NCCN2CCN(C)CC2)cc(-c2cc(C(C)(C)C)cc(C3(C)CC3)c2)n1CC1CCCCC1 [17/346] ?
output: 5.3/<4.7/<4.7

input: Let us now turn to Cc1c(C(=O)NCCO)cc(-c2cc(C(C)(C)C)cc(C(C)(C)C)c2)n1CC1CCCCC1 [1/54]
output: 6.4/6.3/6.4

input: Continue with Cc1c(C(=O)NCC2CCOCC2)cc(-c2cc(C(C)(C)C)cc(C3(C)CC3)c2)n1CC1CCCCC1 [17/63]
output: 6.7/7.7/7.6

input: Please answer likewise for CC(C)(C)NS(=O)(=O)c1ccc(-c2cc(C(=O)NC3CCOCC3)c(CO)n2CC2CCCCC2)cc1C(C)(C)C [17/117]
output: 6.0/7.6/7.7

input: For Cc1c(C(=O)N[C@H]2C[C@H](C(=O)O)C2)cc(-c2cc(C(C)(C)C)nc(C(C)(C)C)c2)n1CC1CCCCC1 [17/262] then?
output: 6.2/7.6/7.8

input: Again, but for Cc1c(C(=O)NC2COC2)cc(-c2cc(C(C)(C)C)nc(C(F)(F)F)c2)n1CC1CCCCC1 [9/15]
output: 6.5/6.5/6.5

input: Also need Cc1c(C(=O)NCCN2CCOCC2)cc(-c2ccc(S(=O)(=O)NC(C)(C)C)c3ccccc23)n1CC1CCCCC1 [17/269] , thanks.
output: 6.0/6.9/7.0

* * *

# tested-system: RORγ ligand binding domain (LBD) (Homo sapiens, UniProt P51449)
# Construct: made in house; host or cells: E. coli BL-21 (BL3), vector pDEST15
# experiment-description: TR-FRET Activity Assay (ligand sensing, RORγ-LBD / coactivator peptide interaction, LANCE)
# Assay type: biochemical
# recorded-conditions: first value of the cell FRET/FF/REN; TR-FRET activity assay; read-out: pIC50 (FRET) (converted)
I'd appreciate it if you marked entries 1 when IC50 is lower than 1000 nM and 0 when it is not.

Observe how each entry below is paired with its result.
input: Is it true that IC50 reported for Cc1c(C(=O)N2CCOC(C(=O)O)C2)cc(-c2ccc(S(=O)(=O)NC(C)(C)C)c(C(F)(F)F)c2)n1CC1CCCCC1 (stereo not shown) [17/137] is less than 1000 nM?
output: 1

input: Can you check Cc1c(C(=O)NC2CCOCC2)cc(-c2ccc(S(=O)(=O)NC(C)(C)C)c(C(F)(F)F)c2)n1CC1(F)CCCCC1 [Example 28] next?
output: 0

input: Continue with Cc1c(C(=O)N[C@H]2C[C@H](C(=O)O)C2)cc(-c2cc(C(=O)N[C@H](C)C(F)(F)F)cc(C3(C)CC3)c2)n1CC1CCCCC1 [17/359]
output: 0

***
input: Input Cc1c(C(=O)NCC(C)(C)C(=O)NCCCO)cc(-c2cc(C(C)(C)C)c3c(c2)C2(CCO3)CC2)n1CC1CCCCC1 [11/6] ; condition: IC50 strictly below 1000 nM. Does it hold?
output: 1

input: Item: Cc1c(C(=O)NC2COC2)cc(-c2cc(C(C)(C)C)c3c(c2)C(C)(C)CC(=O)N3)n1CC1CCCCC1 [1/18]
output: 1

input: Please answer likewise for Cc1c(C(=O)NCC(C)(C)C(=O)O)cc(-c2cc(C(=O)NC(C)(C)C)cc(C(C)(C)C)c2)n1CC1CCCCC1 [17/329]
output: 0

* * *

# tested-system: UniProt P51449
# Sequence (P51449 1-518): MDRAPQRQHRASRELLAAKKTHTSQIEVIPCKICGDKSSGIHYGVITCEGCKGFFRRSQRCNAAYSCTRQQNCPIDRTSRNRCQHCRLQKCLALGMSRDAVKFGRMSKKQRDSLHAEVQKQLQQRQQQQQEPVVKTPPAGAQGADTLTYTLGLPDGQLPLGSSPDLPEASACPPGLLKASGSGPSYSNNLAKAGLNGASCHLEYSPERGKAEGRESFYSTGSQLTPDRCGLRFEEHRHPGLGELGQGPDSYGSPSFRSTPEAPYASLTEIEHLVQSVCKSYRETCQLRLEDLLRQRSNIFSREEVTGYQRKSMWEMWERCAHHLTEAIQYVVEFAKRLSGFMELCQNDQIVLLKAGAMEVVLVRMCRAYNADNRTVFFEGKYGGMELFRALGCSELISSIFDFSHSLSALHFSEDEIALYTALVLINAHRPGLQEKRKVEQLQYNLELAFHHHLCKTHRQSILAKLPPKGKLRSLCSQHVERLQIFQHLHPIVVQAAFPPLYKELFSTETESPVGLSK
# experiment-description: RORγ Gal4 Reporter Gene Assay in 293T cells (firefly and renilla luciferase)
# Type: cell-based, human
# recorded-conditions: second value of the cell; Gal4 reporter gene assay in 293T cells, firefly luciferase
readout-kind: pIC50 (FF)

# count of solved cases: 3
input: Look up pIC50 (FF) for this compound: `Cc1c(C(=O)N[C@H]2C[C@H](C(=O)O)C2)cc(-c2cc(C(=O)N[C@@H](C)C(F)(F)F)cc(C3(C)CC3)c2)n1CC1CCCCC1`
output: 6.3

input: Field entry: `Cc1c(C(=O)N[C@H]2C[C@H](C(=O)O)C2)cc(-c2cc(C(C)(C)C)nc(C(C)(C)C)n2)n1CC1CCCCC1`
output: 7.0

input: Entry to check: `Cc1c(C(=O)N[C@H]2C[C@H](C(=O)O)C2)cc(-c2cc(OCC(C)(C)C)nc(C(C)(C)C)c2)n1CC1CCCCC1`
output: 7.6

Now, please, on to the next compound.
input: Fill in: pIC50 (FF) of `Cc1c(C(=O)NCc2nc(C(=O)O)co2)cc(-c2cc(C(C)(C)C)c3c(c2)C2(CCO3)CC2)n1CC1CCCCC1` is ___
output: 6.1
